Data origin, for the record: the kinase profiling compilation of Christmann-Franck et al. (2016)

SUBJECT OF TEST: RPS6KA2 KD1 KD2 (human)
ASSAY REMARKS: radiometric filter-binding kinase assay, Kinase HotSpot
REPORTED CONDITIONS: compound 0.5 µM; ATP 10 µM
EXPERIMENTAL READOUT: residual activity (%)
Numbers only here, please. The scale is %.

-- ask What measured residual activity is associated with `Cn1cnc2cc3c(Nc4cccc(Br)c4)ncnc3cc21` on RPS6KA2 KD1 KD2 (human)?
-- reply 79.4

-- ask Value wanted: residual activity (RPS6KA2 KD1 KD2 (human)) of entry `O=C1NC(=O)C(c2c[nH]c3ccccc23)=C1c1c[nH]c2ccccc12`
-- reply 11.5

-- ask Form: Entry = `Cn1nc2c3c(cccc31)C(=O)c1ccccc1-2` | System = RPS6KA2 KD1 KD2 (human) | residual activity = ____
-- reply 93.5

-- ask So what residual activity did `Nc1nnc2[nH]c3ccccc3nc1-2` get with RPS6KA2 KD1 KD2 (human)?
-- reply 89.1

-- ask Lab request: please report residual activity under test system RPS6KA2 KD1 KD2 (human) for `CC(=O)O/N=C1\C(=C2\C(=O)Nc3cc(Br)ccc32)Nc2ccccc21`
-- reply 51

-- ask Notebook entry, RPS6KA2 KD1 KD2 (human) assay: residual activity of `O=C(Nc1cccc(Nc2cc(Nc3cccc(C(F)(F)F)c3)ncn2)c1)C1CC1` = ?
-- reply 102

-- ask Notebook entry, RPS6KA2 KD1 KD2 (human) assay: residual activity of `O=C(CCCc1ccc(-c2ccccc2F)cc1)Nc1ccc(O)cc1` = ?
-- reply 101

-- ask Observed residual activity on RPS6KA2 KD1 KD2 (human) for `Oc1ccc(Nc2nc(-c3ccc(Cl)cc3)cs2)cc1` , please.
-- reply 101

-- ask Param readout = residual activity; param system = RPS6KA2 KD1 KD2 (human); param query = `COc1cc2ncnc(N3CCN(C(=O)Nc4ccc(Oc5ccccc5)cc4)CC3)c2cc1OC` ; response: value
-- reply 86.1

-- ask Query the reported residual activity for RPS6KA2 KD1 KD2 (human); item: `CCN(CC)CCCCN1c2ccccc2Oc2ccc(Cl)cc21`
-- reply 88

-- ask Request body: readout residual activity, system RPS6KA2 KD1 KD2 (human), query `CN([C@@H](Cc1ccc(OS(=O)(=O)c2cccc3cnccc23)cc1)C(=O)N1CCN(c2ccccc2)CC1)S(=O)(=O)c1cccc2cnccc12` . Return the value.
-- reply 102

-- ask Give residual activity (RPS6KA2 KD1 KD2 (human)) of the following molecule: `Cc1nc2cc3nc(-c4cccs4)cnc3cc2n1C`
-- reply 95

-- ask Return residual activity measured with RPS6KA2 KD1 KD2 (human) given this molecule: `CC(C)c1nn(-c2c(Cl)cccc2Cl)c2nc(Cc3ccc(OCCO)cc3)nc(O)c12`
-- reply 80.8

-- ask Could you share what residual activity was measured for `O=C1NC(=O)C(c2cn(CCCO)c3ncccc23)=C1c1cnccn1` , tested on RPS6KA2 KD1 KD2 (human)?
-- reply 73.2

-- ask API: value(readout= residual activity, system= RPS6KA2 KD1 KD2 (human), query= `COc1ccc(OC)c2c(=S)c3ccccc3[nH]c12` )
-- reply 87.4

-- ask Can you look up residual activity on RPS6KA2 KD1 KD2 (human) for `CC(C)[C@H](CO)Nc1nc(Nc2cc(N)cc(Cl)c2)c2ncn(C(C)C)c2n1` ?
-- reply 48.7

-- ask Return residual activity measured with RPS6KA2 KD1 KD2 (human) given this molecule: `O=C1NC(=O)/C(=C\c2ccc3nccnc3c2)S1`
-- reply 85.4

-- ask Record `CCn1cnc2c(Nc3cccc(Cl)c3)nc(N[C@@H]3CCCC[C@@H]3N)nc21` : what is its residual activity with RPS6KA2 KD1 KD2 (human)?
-- reply 45.1

-- ask Requested read-out residual activity, target or system RPS6KA2 KD1 KD2 (human), entry `COc1cc2ncc(-c3ccccc3)nc2cc1OC`
-- reply 85.4

-- ask Entry `CN(C)C[C@H]1CCn2c(c(C3=C(c4cn(C)c5ccccc45)C(=O)NC3=O)c3ccccc32)C1` , system RPS6KA2 KD1 KD2 (human): what residual activity was measured?
-- reply 3.57

-- ask residual activity of `O=C1Cc2c([nH]c3ccc(Br)cc23)-c2ccccc2N1` on RPS6KA2 KD1 KD2 (human)?
-- reply 94.9

-- ask Quick check: residual activity on RPS6KA2 KD1 KD2 (human), item `O=C(O)/C=C/c1cc(Br)c(Br)c(Br)c1Br` ?
-- reply 75.8
